# assayed.system: 25 HLA Class II alleles (purified class II MHC molecules)
# assay: competitive radiolabelled-peptide binding to purified HLA class II (25 alleles, binder if IC50 <300 nM); worldwide phenotypic coverage of the alleles found to bind
readout.name: Measured binding coverage 25 alleles (%)
# value in %; strip the unit string

What does the data say about its Measured binding coverage 25 alleles? Entry: WGAIWRIDTPDKLTGPFTVR [peptide 211 (Phl p 1, 193)]
90

Next binder: LKKAVTAMSEAEK [peptide 139, Lol p 5b (Bio04A)]
62
